// data source = paper PMC3038857

# key: entry, value: ATG_PPARg_TRANS
Target: PPARG (peroxisome proliferator-activated receptor gamma) (Homo sapiens)
Construct: expressed in transfected cells; host or cells: HepG2
Sequence (P37231 whole entry): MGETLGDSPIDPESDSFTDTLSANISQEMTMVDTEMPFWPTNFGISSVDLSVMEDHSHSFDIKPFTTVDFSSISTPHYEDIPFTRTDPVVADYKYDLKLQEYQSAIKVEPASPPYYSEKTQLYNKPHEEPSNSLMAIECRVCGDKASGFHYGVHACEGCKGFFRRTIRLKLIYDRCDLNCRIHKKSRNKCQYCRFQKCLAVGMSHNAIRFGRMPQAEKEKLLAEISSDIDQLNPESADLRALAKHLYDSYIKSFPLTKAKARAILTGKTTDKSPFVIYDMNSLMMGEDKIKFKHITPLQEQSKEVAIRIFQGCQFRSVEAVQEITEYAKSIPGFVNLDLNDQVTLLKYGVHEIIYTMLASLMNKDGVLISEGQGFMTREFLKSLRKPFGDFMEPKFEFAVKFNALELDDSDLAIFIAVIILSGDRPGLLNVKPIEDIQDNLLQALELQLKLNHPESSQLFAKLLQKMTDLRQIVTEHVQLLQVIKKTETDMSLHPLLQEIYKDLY
Test: ATG_PPARg_TRANS: Factorial reporter gene assay (HepG2)
Type: cell-based
Settings: HepG2 reporter
// print number alone

# annotated cases, reported ATG_PPARg_TRANS shown
CCc1nn(C)c(C(=O)NCc2ccc(C(C)(C)C)cc2)c1Cl
5.31
CCc1ccc(C(=O)NN(C(=O)c2cc(C)cc(C)c2)C(C)(C)C)cc1
5.201
CCC(C)(C)C(=O)OC1=C(c2cc(Cl)cc(Cl)c2)C(=O)OC12CCCCC2
5.444
Cc1nn(-c2cc(NS(C)(=O)=O)c(Cl)cc2Cl)c(=O)n1C(F)F
4.444
O=[N+]([O-])c1c(Cl)c(Cl)c(Cl)c(Cl)c1Cl
4.409

INPUT: Field: ATG_PPARg_TRANS (PPARG (peroxisome proliferator-activated receptor gamma) (Homo sapiens)). Entry: COC(=O)N(OC)c1ccccc1COc1ccn(-c2ccc(Cl)cc2)n1
OUTPUT: 6.119

INPUT: Field: ATG_PPARg_TRANS (PPARG (peroxisome proliferator-activated receptor gamma) (Homo sapiens)). Entry: Fc1ccc(Oc2ccnc3cc(Cl)cc(Cl)c23)cc1
OUTPUT: 5.18

INPUT: Field: ATG_PPARg_TRANS (PPARG (peroxisome proliferator-activated receptor gamma) (Homo sapiens)). Entry: Cc1cc(C)nc(Nc2ccccc2)n1
OUTPUT: 4.137

INPUT: Field: ATG_PPARg_TRANS (PPARG (peroxisome proliferator-activated receptor gamma) (Homo sapiens)). Entry: CCNc1nc(Cl)nc(NCC)n1
OUTPUT: 4.398

INPUT: Field: ATG_PPARg_TRANS (PPARG (peroxisome proliferator-activated receptor gamma) (Homo sapiens)). Entry: CC(C)(C)c1ccc(CSc2cnn(C(C)(C)C)c(=O)c2Cl)cc1
OUTPUT: 4.854
